Cited source for all entries: paper PMC10363080

System tested: porcine pancreatic lipase (Sus scrofa, UniProt P00591)
Construct: purchased Abnova
Sequence (P00591 whole entry): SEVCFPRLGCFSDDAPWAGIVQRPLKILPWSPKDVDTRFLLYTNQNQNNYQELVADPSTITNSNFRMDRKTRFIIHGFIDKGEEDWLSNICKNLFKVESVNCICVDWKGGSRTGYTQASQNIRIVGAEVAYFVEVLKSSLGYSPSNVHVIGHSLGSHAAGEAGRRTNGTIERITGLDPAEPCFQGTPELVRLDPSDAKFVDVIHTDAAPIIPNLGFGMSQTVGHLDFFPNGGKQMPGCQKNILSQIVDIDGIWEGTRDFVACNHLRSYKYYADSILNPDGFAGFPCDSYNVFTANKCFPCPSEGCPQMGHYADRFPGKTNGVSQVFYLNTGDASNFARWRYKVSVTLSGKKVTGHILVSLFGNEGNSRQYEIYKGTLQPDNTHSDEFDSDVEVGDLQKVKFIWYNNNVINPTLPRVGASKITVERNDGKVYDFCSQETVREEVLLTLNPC
Experimental protocol: Pancreatic lipase inhibitory activity
Type: biochemical
Condition context: isolated compounds, Table S7; read-out: Inhibition (IC50) Lipase
Measure: IC50 (nM)
Give just the numeric value; nM need not be written.

- Compound: "O=c1c(O[C@@H]2O[C@H](CO)[C@@H](O)[C@H](O)[C@H]2O)c(-c2ccc(O)c(O)c2)oc2cc(O)cc(O)c12 [P2, isoquercitrin]"
  Measure: "IC50"
  Meas value: 570
- Compound: "O=C(O)/C=C/c1ccccc1 [P6, cinnamic acid]"
  Measure: "IC50"
  Meas value: 350

Query: Annotate the compound COc1cc(-c2oc3cc(O)cc(O)c3c(=O)c2O[C@@H]2O[C@H](CO)[C@@H](O)[C@H](O)[C@H]2O)ccc1O [P3, isorhamnetin-3-O-β-D-glucopyranoside] with its measured IC50.
Result: 780

Query: Please supply the value of reported IC50 for the item C[C@@H]1O[C@@H](OC[C@H]2O[C@@H](Oc3c(-c4ccc(O)c(O)c4)oc4cc(O)cc(O)c4c3=O)[C@H](O)[C@@H](O)[C@@H]2O)[C@H](O)[C@H](O)[C@H]1O [P1, rutin]
Result: 980

Query: Give the reported value of IC50 for this record: O=C(/C=C/c1ccc(O)c(O)c1)O[C@@H]1C[C@](O)(C(=O)O)C[C@@H](O)[C@H]1O [P4, chlorogenic acid]
Result: 1310

----------
System tested: inducible nitric oxide synthase (iNOS) (Mus musculus)
Construct: endogenous in cells; host or cells: RAW264.7 mouse macrophages, LPS-induced
Sequence (P29477 whole entry): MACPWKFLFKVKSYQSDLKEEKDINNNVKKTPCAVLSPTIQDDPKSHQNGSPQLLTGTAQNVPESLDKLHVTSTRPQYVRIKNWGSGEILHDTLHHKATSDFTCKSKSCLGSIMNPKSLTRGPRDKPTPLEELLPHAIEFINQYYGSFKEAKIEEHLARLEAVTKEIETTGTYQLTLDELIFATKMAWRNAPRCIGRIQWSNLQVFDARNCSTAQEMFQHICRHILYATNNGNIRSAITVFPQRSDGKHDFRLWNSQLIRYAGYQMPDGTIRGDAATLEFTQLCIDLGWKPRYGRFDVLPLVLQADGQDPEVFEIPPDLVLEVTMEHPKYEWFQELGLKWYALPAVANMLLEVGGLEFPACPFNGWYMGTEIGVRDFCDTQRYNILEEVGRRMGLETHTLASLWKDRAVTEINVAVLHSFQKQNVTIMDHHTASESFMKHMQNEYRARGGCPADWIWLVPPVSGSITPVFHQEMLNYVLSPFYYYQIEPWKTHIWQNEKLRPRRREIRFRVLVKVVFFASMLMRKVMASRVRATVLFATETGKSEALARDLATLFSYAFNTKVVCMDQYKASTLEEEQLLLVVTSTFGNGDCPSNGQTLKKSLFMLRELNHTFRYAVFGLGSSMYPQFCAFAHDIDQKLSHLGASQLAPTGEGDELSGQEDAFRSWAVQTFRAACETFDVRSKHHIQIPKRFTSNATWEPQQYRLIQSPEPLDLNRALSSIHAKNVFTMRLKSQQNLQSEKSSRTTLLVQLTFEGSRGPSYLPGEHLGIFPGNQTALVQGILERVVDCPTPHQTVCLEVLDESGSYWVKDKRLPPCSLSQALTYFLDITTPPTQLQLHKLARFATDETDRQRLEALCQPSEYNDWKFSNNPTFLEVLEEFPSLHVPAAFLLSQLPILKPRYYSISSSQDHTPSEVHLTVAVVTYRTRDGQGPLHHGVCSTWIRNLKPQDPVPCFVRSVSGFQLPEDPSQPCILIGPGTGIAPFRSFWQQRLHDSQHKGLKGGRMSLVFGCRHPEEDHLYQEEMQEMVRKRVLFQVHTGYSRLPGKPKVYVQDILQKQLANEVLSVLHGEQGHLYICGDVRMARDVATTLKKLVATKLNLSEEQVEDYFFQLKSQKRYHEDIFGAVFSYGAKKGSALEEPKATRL
Experimental protocol: iNOS inhibitory activity in LPS-induced RAW264.7 macrophages (nitrite, Griess reagent)
Type: cell-based
Condition context: isolated compounds, Table S7, RAW264.7 cells, read-out: Inhibition (IC50) iNOS (converted)
Description: Phenolic acids and flavonoids used in HPLC analysis as well as all other reagents for biological investigations were obtained from Sigma Chemical Company […] inhibitory concentration (IC50). The percentage of enzyme inhibition was calculated according to […] Inducible nitric oxide synthase (iNOS) inhibitory activity iNOS inhibitory activity was determined in mouse macrophage cells (RAW264.7, Shanghai BOGO Industrial Co., Ltd., China) according to a previously designed method. […]
Measure: IC50 (µM)
State just the number; it will be interpreted in µM.

# count of solved cases: 2
- Molecule: "C=C1C(=O)O[C@H]2[C@H]1CC/C(C)=C/CC[C@@]1(C)O[C@@H]21 [parthenolide, reference compound]"
  System tested: "inducible nitric oxide synthase (iNOS) (Mus musculus)"
  Unit spec: "µM"
  IC50: 4.51
- Molecule: "C[C@@H]1O[C@@H](OC[C@H]2O[C@@H](Oc3c(-c4ccc(O)c(O)c4)oc4cc(O)cc(O)c4c3=O)[C@H](O)[C@@H](O)[C@@H]2O)[C@H](O)[C@H](O)[C@H]1O [P1, rutin]"
  System tested: "inducible nitric oxide synthase (iNOS) (Mus musculus)"
  Unit spec: "µM"
  IC50: 4.99

Now for the molecule whose IC50 we want.
Query: Read the entry O=C(/C=C/c1ccc(O)c(O)c1)O[C@@H]1C[C@](O)(C(=O)O)C[C@@H](O)[C@H]1O [P4, chlorogenic acid] and write its reported IC50.
Result: 4.79

----------
System tested: UniProtKB P80457
Sequence (P80457 2-1332): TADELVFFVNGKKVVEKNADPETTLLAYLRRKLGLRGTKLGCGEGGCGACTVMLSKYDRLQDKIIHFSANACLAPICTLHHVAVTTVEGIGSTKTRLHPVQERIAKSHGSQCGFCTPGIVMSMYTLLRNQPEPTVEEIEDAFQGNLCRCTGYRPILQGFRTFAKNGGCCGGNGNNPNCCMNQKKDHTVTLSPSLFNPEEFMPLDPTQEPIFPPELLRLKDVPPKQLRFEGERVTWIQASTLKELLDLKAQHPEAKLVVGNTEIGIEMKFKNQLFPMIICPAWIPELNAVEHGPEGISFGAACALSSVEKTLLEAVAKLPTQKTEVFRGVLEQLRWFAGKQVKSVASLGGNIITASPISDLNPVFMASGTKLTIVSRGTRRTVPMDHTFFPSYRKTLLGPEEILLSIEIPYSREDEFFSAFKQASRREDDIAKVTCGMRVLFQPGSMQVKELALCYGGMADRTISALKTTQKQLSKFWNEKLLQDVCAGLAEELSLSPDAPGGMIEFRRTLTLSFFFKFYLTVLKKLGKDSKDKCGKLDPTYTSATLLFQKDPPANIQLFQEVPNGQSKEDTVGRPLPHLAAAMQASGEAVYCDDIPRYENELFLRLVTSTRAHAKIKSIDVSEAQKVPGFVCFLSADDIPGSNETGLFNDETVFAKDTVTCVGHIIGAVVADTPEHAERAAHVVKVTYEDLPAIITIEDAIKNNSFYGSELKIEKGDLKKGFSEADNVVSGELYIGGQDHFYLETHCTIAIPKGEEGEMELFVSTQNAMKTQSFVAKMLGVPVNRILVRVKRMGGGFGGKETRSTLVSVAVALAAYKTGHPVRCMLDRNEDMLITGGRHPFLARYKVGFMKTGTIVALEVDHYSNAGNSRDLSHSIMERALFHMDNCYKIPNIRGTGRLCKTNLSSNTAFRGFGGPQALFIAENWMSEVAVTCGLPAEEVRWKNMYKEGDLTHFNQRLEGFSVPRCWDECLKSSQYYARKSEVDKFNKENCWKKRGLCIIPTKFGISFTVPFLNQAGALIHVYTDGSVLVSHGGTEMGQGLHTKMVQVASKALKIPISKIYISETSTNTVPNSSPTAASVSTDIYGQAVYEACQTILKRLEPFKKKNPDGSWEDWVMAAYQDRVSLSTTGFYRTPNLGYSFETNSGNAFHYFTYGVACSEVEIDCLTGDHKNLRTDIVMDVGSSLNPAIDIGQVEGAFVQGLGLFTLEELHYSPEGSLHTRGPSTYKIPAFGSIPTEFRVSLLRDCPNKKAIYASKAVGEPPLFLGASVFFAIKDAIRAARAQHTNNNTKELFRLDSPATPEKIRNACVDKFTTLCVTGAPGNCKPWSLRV
Experimental protocol: Xanthine oxidase (XO) inhibitory activity
Condition context: isolated compounds, Table S7; read-out: Inhibition (IC50) XO
Measure: IC50 (µM)
Respond numerically; units are µM and should not be typed.

Query: For UniProtKB P80457, give the measured IC50 of the entry COc1cc(-c2oc3cc(O)cc(O)c3c(=O)c2O[C@@H]2O[C@H](CO)[C@@H](O)[C@H](O)[C@H]2O)ccc1O [P3, isorhamnetin-3-O-β-D-glucopyranoside]
Result: 3.56
